Molecular target: T1, human ferroportin (SLC40A1) fused with GFP, stably expressed in HEK293 cells (human, UniProt Q9NP59 1-571)
T1 sequence (looked up): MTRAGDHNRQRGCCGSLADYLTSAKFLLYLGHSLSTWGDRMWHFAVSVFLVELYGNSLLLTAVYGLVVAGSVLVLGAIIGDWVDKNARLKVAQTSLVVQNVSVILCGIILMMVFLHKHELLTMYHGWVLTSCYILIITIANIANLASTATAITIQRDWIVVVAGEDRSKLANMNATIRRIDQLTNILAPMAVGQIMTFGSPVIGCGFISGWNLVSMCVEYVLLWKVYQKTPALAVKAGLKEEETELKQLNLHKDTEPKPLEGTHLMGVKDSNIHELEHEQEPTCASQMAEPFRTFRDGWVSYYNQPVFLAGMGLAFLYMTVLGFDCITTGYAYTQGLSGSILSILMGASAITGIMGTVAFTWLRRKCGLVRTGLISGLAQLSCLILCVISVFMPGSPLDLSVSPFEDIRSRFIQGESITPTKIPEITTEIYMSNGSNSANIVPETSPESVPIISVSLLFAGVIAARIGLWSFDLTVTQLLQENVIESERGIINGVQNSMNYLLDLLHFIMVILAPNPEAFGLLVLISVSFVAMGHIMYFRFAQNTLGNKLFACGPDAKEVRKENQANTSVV
Assay: cell-based or functional assay
Positions of bridges follow the written chain, without caps; N, C: chain ends. Non-standard residues stand in square brackets, D forms with d. Groups on a side chain read outwards from the residue. Primed or numbered codes have the meaning given here. *: point of attachment. PEG4′ = bifunctional PEG linker with 4 polyethylene glycol units; Palmitoyl = CCCCCCCCCCCCCCCC(=O)*; Isovaleryl = CC(C)CC(=O)*; PEG2′ = not defined here
The following binders are shown together with reported FPN IC50 values.
Answer format: numeric, nM implied, no suffix.

{"BINDER": "Isovaleryl-DTHFPCI[dK]FK([PEG4′-PEG4′-Palmitoyl])KC-NH2 (disulfide 6-12 (inferred)) [Compd ID 93]", "ENDPOINT": "FPN IC50", "VALUE_UNIT": "nM", "MEASURED_VALUE": 18}

According to the records, this binder DTHXPCIKXKXX (Isovaleric acid-DTH-[Dpa]-PCI-[(D)Lys]-[b-hPhe]-[Lys(Ahx-Palm)]-[Dap]-[N-Me-Cys]-NH2) [Compd ID 151] displays FPN IC50 of 28.5

For reference, reported FPN IC50 for Isovaleryl-DTHFPCI[dK]FK([PEG2′-PEG2′-C18 acid])KC-NH2 (disulfide 6-12 (inferred)) [Compd ID 89] stands at 27

DTHFPCIKXKKC (Isovaleric acid-DTHFPCI-[(D)Lys]-[bhomoPhe]-Lys[PEG11-Palm]-K-[Cys]-NH2) [Compd ID 103] yielded FPN IC50 of 20

src = patent US20200361992A1
